- ASSAY SYSTEM: T1, Soluble CTLA-4-Ig (extracellular domain of human CTLA-4 fused to the Fc portion of human IgG1) (human, UniProt P16410 36-161, FITC-conjugated in the FACS binding assays)
- T1 construct: extracellular domain; bought from R&D Systems; also called sCTLA-4-Ig; CTLA-4-Ig Fc; not shown: Fc portion of human IgG1
- T1 sequence (P16410 36-161): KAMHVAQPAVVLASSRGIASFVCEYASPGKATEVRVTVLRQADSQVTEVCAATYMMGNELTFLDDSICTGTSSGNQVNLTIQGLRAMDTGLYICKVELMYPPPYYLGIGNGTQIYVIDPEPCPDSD
- PROTOCOL DESCRIPTION: competitive FACS on transfected cells, FITC-sCTLA-4-Ig with biotin-sCD28-Ig; grade 0-2 of CTLA-4/CD28 ratio vs WT hB7-1
REPORTED PROPERTY: Binding Score

BINDER | Binding Score
Round 2 CTLA4BP-5x2-7b (ligand) VIHVTKEVKEVATLSCGHNVSVEELAQTRIHWQKEKKMVLTMMSGDMNIWPEYKNRTIFDITNNLSIVILALRPSDEGTYECVVLKYEKDAFKREHLAEVTLSVKAGFPTPSITDFEIPPSNIRRIICSTSGGFPEPHLSWLENGEELNAINTTVSQDPGTELYTVSSKLDFNMTANHSFVCLIKYGHLRVNQTFNWNTPKQEHFPDNLLPSWAITLISANGIFVICCLTYCFAPRCRERRRNERLRRESVRPV | 1

// next entry
# input Please indicate Binding Score recorded for Round 2 CTLA4BP-5x8-1f (ligand) VIHVTKEVKEVATLSCGHNVSVEELAQTRIHWQKEKKMVLTMMSGDMNIWPEYKNRTIFDITNNLSIVILALRPSDEGTYECVVLKYEKDAFKREHLAEVMLSVKADFPTPSITDFEIPPSNIRRIICSASGGFPEPHLFWLENGEELNAINTTVSQDPETELYAVSSKLDFNMTTNHSFMCLIRYGHLRVNQTFNWNTPKQEHFPDNLLPSWAITLISVNGIFVICCLTYCFAPRCRERKSNERLRRESVRPV
# output 2
